System: Mycobacterium tuberculosis variant bovis
assay details: Antimicrobial activity against Mycobacterium bovis after 1 to 5 days by two-fold dilution
Assay type: functional, organism-based
attribute measured: pIC50
// pIC50 is dimensionless: -log10 of concentration (M)

(Q) Specify pIC50 for FC(F)(F)Oc1cccc(CNCCNC2C3CC4CC(C3)C2C4)c1 (stereo unspecified) and stop.
(A) 5.90

These data points were gathered from ChEMBL document CHEMBL4414576.
